Molecular target: T1, human LAG3 (form used in Octet, Biacore and HDX-MS not given) (human, UniProt P18627 23-450, limits assumed)
T1 sequence (looked up): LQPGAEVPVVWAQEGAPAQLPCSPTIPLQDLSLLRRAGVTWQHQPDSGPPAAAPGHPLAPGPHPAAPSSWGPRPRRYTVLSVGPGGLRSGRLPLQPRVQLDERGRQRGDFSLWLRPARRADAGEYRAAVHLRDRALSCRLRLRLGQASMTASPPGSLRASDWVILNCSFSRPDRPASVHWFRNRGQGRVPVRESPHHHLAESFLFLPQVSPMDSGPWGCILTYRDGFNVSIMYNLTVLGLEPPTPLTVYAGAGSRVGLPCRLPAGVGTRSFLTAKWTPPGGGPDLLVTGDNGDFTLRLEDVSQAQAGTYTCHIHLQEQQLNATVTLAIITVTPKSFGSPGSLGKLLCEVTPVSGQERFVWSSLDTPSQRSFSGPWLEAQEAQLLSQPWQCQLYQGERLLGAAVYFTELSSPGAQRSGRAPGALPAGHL
Experiment: BLI (Octet), 1:1 fit
Experimental: The purified chimeric antibodies were characterized for binding affinity against human LAG3 using Bio-Layer Interferometry technology (Octet system). The association and dissociation curves were fit with 1:1 binding model, and the Ka/Kd/KD values for each antibody were calculated.
Quick list: kon per entry.
Give the number; M⁻¹ s⁻¹ is assumed, so skip it.

Recorded kon, per entry:
INSERT INTO measurements (binder, numeric_result) VALUES
  ('021c (antibody, human IgG4, V domains shown, human IgG4 S228P / kappa chimeric antibody; also called chimeric antibody 021; not shown: human kappa light chain constant region (pcDNA3.4-hIgGk vector)) VH: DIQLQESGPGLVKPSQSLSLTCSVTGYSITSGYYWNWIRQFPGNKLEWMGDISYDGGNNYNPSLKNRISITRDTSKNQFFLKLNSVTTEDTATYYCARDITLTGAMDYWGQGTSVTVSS VL: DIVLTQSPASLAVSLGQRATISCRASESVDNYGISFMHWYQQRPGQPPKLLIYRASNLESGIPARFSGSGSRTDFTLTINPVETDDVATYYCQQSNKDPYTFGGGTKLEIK', 139000),
  ('029c (antibody, human IgG4, V domains shown, human IgG4 S228P / kappa chimeric antibody; also called chimeric antibody 029; not shown: human kappa light chain constant region (pcDNA3.4-hIgGk vector)) VH: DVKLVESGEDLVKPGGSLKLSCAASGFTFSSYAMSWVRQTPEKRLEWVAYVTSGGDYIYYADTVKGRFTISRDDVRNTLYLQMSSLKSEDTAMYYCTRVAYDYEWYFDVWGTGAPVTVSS VL: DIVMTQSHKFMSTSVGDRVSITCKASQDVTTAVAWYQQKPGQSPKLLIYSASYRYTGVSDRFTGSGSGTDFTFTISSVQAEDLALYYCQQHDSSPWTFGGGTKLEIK', 389000),
  ('023c (antibody, human IgG4, V domains shown, human IgG4 S228P / kappa chimeric antibody; also called chimeric antibody 023; ES005-023c; not shown: human kappa light chain constant region (pcDNA3.4-hIgGk vector)) VH: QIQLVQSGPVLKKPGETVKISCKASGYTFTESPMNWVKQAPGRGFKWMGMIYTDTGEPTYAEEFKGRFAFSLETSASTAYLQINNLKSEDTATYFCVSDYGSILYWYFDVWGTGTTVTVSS VL: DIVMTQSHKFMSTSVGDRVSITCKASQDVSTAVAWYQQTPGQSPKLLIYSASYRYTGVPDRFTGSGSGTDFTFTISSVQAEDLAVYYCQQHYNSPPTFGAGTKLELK', 359000);

Exercise: Which kon value is on record for TSR-033 (antibody, V domains shown) VH: EVQLVQSGAEVKKPGATVKISCKASGFSIKDDYIHWVQQAPGKGLEWMGWIDAMNDDSQYSSKFQGRVTITVDTSTNTAYMKLSSLRSEDTAVYYCTYAFGGYWGQGTTVTVSS VL: DIVMTQTPLSLSVTPGQPASISCRSSQSLVHSDSNTYLHWYLQKPGQSPQLLIYLVSNRFSGVPDRFSGSGSGTDFTLKISRVEAEDVGVYFCGQSTHVPYAFGGGTKVEIK ?
Solution: 248000
